Task for the reader: assign each of the following molecules its reported CASOB, herbicide rating (0-9).
Test system: CASSIA OBTUSIFOLIA, L.
Procedure Summary: Postemergence herbicidal evaluation, CASOB (Sicklepod)
Type: in vivo
Assay Setup: Rate 0.500 kg/ha, rated four to five weeks after treatment, averaged
Form rule: numeric answer, no unit written next to it.

So for "CCOC(=O)Cn1c(=O)n(C)c(=O)n(-c2cc(Oc3c(F)cc(C(F)(F)F)cc3Cl)ccc2C#N)c1=O" , the logged CASOB, herbicide rating (0-9) turned out to be 9.0

Lab note: "COC(=O)Cn1c(=O)n(CC(=O)OC)c(=O)n(-c2cc(Oc3ccc(Cl)cc3Cl)ccc2[N+](=O)[O-])c1=O" gave CASOB, herbicide rating (0-9) of 9.0

Lookup result for "COC(=O)Cn1c(=O)n(C)c(=O)n(-c2cc(Oc3c(F)cc(C(F)(F)F)cc3Cl)ccc2[N+](=O)[O-])c1=O" ; measured CASOB, herbicide rating (0-9): 9.0

Lab note: "Cn1c(=O)n(CC(=O)O)c(=O)n(-c2cc(Oc3c(F)cc(C(F)(F)F)cc3Cl)ccc2[N+](=O)[O-])c1=O" gave CASOB, herbicide rating (0-9) of 9.0

Recorded result, "COC(=O)Cn1c(=O)n(C)c(=O)n(-c2cc(Oc3ccc(Cl)cc3Cl)ccc2[N+](=O)[O-])c1=O" , CASOB, herbicide rating (0-9): 9.0

For reference, reported CASOB, herbicide rating (0-9) for "CCOC(=O)Cn1c(=O)n(C)c(=O)n(-c2cc(Oc3ccc(C(F)(F)F)cc3Cl)ccc2[N+](=O)[O-])c1=O" stands at 9.0

Lookup result for "COC(=O)Cn1c(=O)n(C)c(=O)n(-c2cc(Oc3c(F)cc(C(F)(F)F)cc3Cl)ccc2Br)c1=O" ; measured CASOB, herbicide rating (0-9): 9.0
